The entries below pair molecules with pIC50 values for Vascular endothelial growth factor receptor 2 (Homo sapiens, UniProt P35968), as found in several publications.
Answers are plain numbers, as −log10 of the molar value.

The examples below pair each entry with its known result.
CCC1=C(CC(=O)O)c2cc(F)ccc2/C1=C\c1ccoc1 = 5.30
Nc1nc2cnc(-c3ccccc3)cn2n1 = 4.41
COc1ccccc1N1CCN(CC(O)COc2ncnc3ccccc23)CC1 (stereo not given) = 8.00

Tell me its pIC50 given OC(COc1ncnc2ccccc12)CN1CCN(c2cccc(Cl)c2)CC1 (stereo not given) as the entry.
7.32

* * *

Literature roundup of Vascular endothelial growth factor receptor 2 (Homo sapiens, UniProt P35968) data, read-out IC50.
Could you please mark satisfied for values of IC50 below 600 nM and not satisfied for values at or above it?

# count of solved cases: 10
CC1=C(CC(=O)O)c2ccc(Br)cc2/C1=C\c1ccoc1 = not satisfied
COc1cc2c(Oc3ccc(NC(=O)C4(C(=O)Nc5ccc(F)cc5)CC4)cc3F)ccnc2cc1OCCCN(C)CCCSC(C)=O = satisfied
CC(C)Oc1ccc2c(c1)CCc1c-2c2c(c3c4ccccc4n(CCO)c13)CNC2=O = not satisfied
COc1cc2c(Oc3ccc(NC(=O)C4(C(=O)Nc5ccc(F)cc5)CC4)cc3F)ccnc2cc1OCCCNCCCS = satisfied
CN(c1ccc(NC(=O)Nc2ccccc2)cc1)c1ccnc(Nc2cccc(CS(C)(=O)=O)c2)n1 = satisfied
N[C@@H](CCCN=CC1C(=O)Nc2ccccc21)C(=O)O (stereo partly drawn) = not satisfied
Cc1cc(C)nc(NS(=O)(=O)c2ccc(Nc3nccc(N(C)c4ccc5c(C)n(C)nc5c4)n3)cc2)n1 = satisfied
COc1cc2c(Oc3ccc(NC(=O)C4(C(=O)NC5CC5)CC4)cc3F)ccnc2cc1OCCCCCNC(=O)CSC(C)=O = satisfied
COC(=O)c1ccc2c(c1)NC(=O)C2C(=NC1CCC(NC(=O)CN(C)C)CC1)c1ccccc1 (stereo not drawn) = not satisfied
COc1cc2c(Nc3ccc(F)c(Cl)c3F)ncnc2cc1OC[C@@H]1CN2CCC[C@H]2CO1 = satisfied

Hi there! Is IC50 for `CC1=C(CC(=O)O)c2ccc(Br)cc2/C1=C\c1ccsc1` below 600 nM, do you know?
not satisfied

Below 600 nM on IC50? Entry `COc1ccc(CN2C3CC2CN(c2ccc(-c4cc(N5CC(C)(O)C5)cn5ncc(C#N)c45)cn2)C3)cn1`
satisfied

Could you please tell me whether IC50 recorded for COc1cc2c(Nc3ccc(F)c(Cl)c3F)ncnc2cc1OC[C@H]1CN2CCOCC2CO1 (stereo partly drawn) is less than 600 nM?
satisfied

Hi there! Is IC50 for COc1cc(-c2nn(C3CCC(N4CCN(C)CC4)CC3)c3ncnc(N)c23)ccc1NC(=O)Nc1ccccc1 (stereo not drawn) below 600 nM, do you know?
satisfied

In the record for `Cc1c(C(=O)Nc2ccc(Oc3ccnc(C(=O)N4CCC(N5CCCCC5)CC4)c3)c(F)c2)c(=O)n(-c2ccccc2)n1C` , is IC50 less than 600 nM?
not satisfied

IC50 under 600 nM? Item: `COc1cc2c(Oc3ccc(NC(=O)C4(C(=O)Nc5ccc(F)cc5)CC4)cc3F)ccnc2cc1OCCCCNC(=O)CSC(C)=O`
satisfied

Bench note: check whether `Cc1c(C(=O)Nc2ccc(Oc3ccnc(C(=O)NCCN4CCOCC4)c3)c(F)c2)c(=O)n(-c2ccccc2)n1C` shows IC50 below 600 nM
not satisfied

For this molecule, is IC50 lower than 600 nM? OC(COc1ncnc2ccccc12)CN1CCCCC1 (stereo not drawn)
satisfied

Say whether its IC50 is strictly beneath 600 nM. Entry: `Cc1cc(NS(=O)(=O)c2ccc(Nc3nccc(N(C)c4ccc5c(C)n(C)nc5c4)n3)cc2)no1`
not satisfied

IC50 strictly < 600 nM for this molecule? `COc1ccc(Nc2nc3ccc(NC(=O)c4ccccc4C(=O)O)cc3[nH]c2=O)cc1`
not satisfied

Here's an entry: Cc1nccn1CC(O)COc1ncnc2ccccc12 (stereo not drawn) . Is its IC50 below 600 nM?
satisfied

# check: IC50 < 600 nM for CCN1CCN(CC(O)COc2ncnc3ccccc23)CC1 (stereo not drawn)
satisfied

In the record for COCCOc1ccc2nccc(Oc3ccc(NC(=O)C4=C(C)N=C(C)C(c5ccc(F)cc5)C4O)cc3F)c2n1 (stereo not drawn) , is IC50 less than 600 nM?
satisfied

Is 600 nM strictly greater than the molecule's reported IC50? molecule: O=[N+]([O-])c1ccc(N2CCN(CC(O)COc3ncnc4ccccc34)CC2)cc1 (stereo not drawn)
satisfied

# check: IC50 < 600 nM for `CN(c1ccc(NC(=N)Nc2ccccc2)cc1)c1ccnc(Nc2cccc(CS(C)(=O)=O)c2)n1`
satisfied

Please let me know if `CC1=C(CC(=O)O)c2cc(F)ccc2/C1=C\c1ccsc1` shows IC50 below 600 nM.
not satisfied

For `Cc1ccnc(NS(=O)(=O)c2ccc(Nc3nccc(Nc4ccc5c(C)n(C)nc5c4)n3)cc2)n1` , is the recorded IC50 below the cut-off of 600 nM?
satisfied
